- ASSAY COMMENT: Biodistribution (γ-counter)
- Type: in vivo, BALB/C nude mice
- CONDITION CONTEXT: male, BALB/C nude, mouse, bone, iv, total radioactivity, 60 min HN11-1 Block; mean ± SD, n = 3; read-out: Bone uptake
Peptide text beside a SMILES is read from it. * marks the point of attachment. NOTA = O=C(O)CN1CCN(CC(=O)O)CCN(CC(=O)*)CC1; AEEEA = NCCOCCOCCOCC(=O)O
PROPERTY MEASURED: tissue uptake at 1 h (%ID/g)
Your answer should be a plain number; it is taken to be in %ID/g.

Problem: Which tissue uptake at 1 h reading was recorded for the compound CC[C@H](C)[C@H](NC(=O)[C@H](CCCNC(=N)N)NC(=O)CNC(=O)[C@H](CCC(=O)O)NC(=O)[C@H](CC(N)=O)NC(=O)[C@H](Cc1ccc(O)cc1)NC(=O)[C@H](CCCNC(=N)N)NC(=O)[C@H](Cc1ccc(O)cc1)NC(=O)[C@H](Cc1c[nH]cn1)NC(=O)COCCOCCOCCNC(=O)CN1CCN(CC(=O)O)CCN(CC(=O)O)CC1)C(=O)N[C@@H](CCCNC(=N)N)C(=O)N[C@@H](CC(N)=O)C(=O)O [[^68Ga]Ga-HN11-1, metal not drawn] ({NOTA-AEEEA}-HYRYNEGRIRN-OH) ?
Result: 0.43

* * *

- ASSAY COMMENT: Biodistribution (γ-counter)
- Type: in vivo, BALB/C nude mice
- CONDITION CONTEXT: male, BALB/C nude, mouse, small intestine, iv, total radioactivity, 30 min p.i.; mean ± SD, n = 3; read-out: Small intestine uptake
- Description: Micro-PET imaging was conducted using an Inveon PET scanner (Siemens, Germany). Dynamic PET examine were acquired over the first 60 min following the simultaneous injection of 7.4 to 9.25 MBq (200 to 250 μCi) of [^68Ga]Ga-HN11-1 and [^68Ga]Ga-HN11-2. […] The samples were counted using the γ-counter for determining the %ID/g, presented as mean ± standard deviation (SD). […]
Peptide text beside a SMILES is read from it. * marks the point of attachment. NOTA = O=C(O)CN1CCN(CC(=O)O)CCN(CC(=O)*)CC1; AEEEA = NCCOCCOCCOCC(=O)O
PROPERTY MEASURED: tissue uptake at 0.5 h (%ID/g)
Your answer should be a plain number; it is taken to be in %ID/g.

Problem: Which tissue uptake at 0.5 h reading was recorded for the compound CC[C@H](C)[C@H](NC(=O)[C@H](CCCNC(=N)N)NC(=O)CNC(=O)[C@H](CCC(=O)O)NC(=O)[C@H](CC(N)=O)NC(=O)[C@H](Cc1ccc(O)cc1)NC(=O)[C@H](CCCNC(=N)N)NC(=O)[C@H](Cc1ccc(O)cc1)NC(=O)[C@H](Cc1c[nH]cn1)NC(=O)COCCOCCOCCNC(=O)CN1CCN(CC(=O)O)CCN(CC(=O)O)CC1)C(=O)N[C@@H](CCCNC(=N)N)C(=O)N[C@@H](CC(N)=O)C(=O)O [[^68Ga]Ga-HN11-1, metal not drawn] ({NOTA-AEEEA}-HYRYNEGRIRN-OH) ?
Result: 0.62

* * *

- ASSAY COMMENT: Biodistribution (γ-counter)
- Format: in vivo, BALB/C nude mice
- CONDITION CONTEXT: male, BALB/C nude, mouse, tumor and muscle, iv, total radioactivity; 10 min p.i.; mean ± SD, n = 3; read-out: Tumor/Muscle ratio
Peptide text beside a SMILES is read from it. * marks the point of attachment. NOTA = O=C(O)CN1CCN(CC(=O)O)CCN(CC(=O)*)CC1; AEEEA = NCCOCCOCCOCC(=O)O
PROPERTY MEASURED: tissue to tissue ratio at 10 min

Problem: Which tissue to tissue ratio at 10 min reading was recorded for the molecule CC[C@H](C)[C@H](NC(=O)[C@H](CCCNC(=N)N)NC(=O)CNC(=O)[C@H](CCC(=O)O)NC(=O)[C@H](CC(N)=O)NC(=O)[C@H](Cc1ccc(O)cc1)NC(=O)[C@H](CCCNC(=N)N)NC(=O)[C@H](Cc1ccc(O)cc1)NC(=O)[C@H](Cc1c[nH]cn1)NC(=O)COCCOCCOCCNC(=O)CN1CCN(CC(=O)O)CCN(CC(=O)O)CC1)C(=O)N[C@@H](CCCNC(=N)N)C(=O)N[C@@H](CC(N)=O)C(=O)O [[^68Ga]Ga-HN11-1, metal not drawn] ({NOTA-AEEEA}-HYRYNEGRIRN-OH) ?
Result: 1.82

Reference for the values: paper PMC11528066
